# pKi listing for each entry below
protocol: [Ca2+] channel binding affinity was evaluated by its ability to displace [3H]-PN-200-110 in rat brain synaptosomes
Type: subcellular
pKi: −log10 of the molar value.

| compound | operator-symbol | pKi |
| --- | --- | --- |
| COc1cc2nc(N3CCN(C(=O)c4ccco4)CC3)nc(N)c2cc1OC | < | 6.00 |
| COC(=O)C1=C(C)NC(C)=C(C(=O)OC)C1c1ccccc1[N+](=O)[O-] | = | 9.28 |
| COC(=O)C1=C(C)NC(C)=C(C(=O)NCCCN2CCN(c3ccccc3OC)CC2)[C@@H]1c1cccc([N+](=O)[O-])c1 | = | 6.47 |
| CO/C(O)=C1\C(C)=NC(C)=C(C(=O)n2ccnc2)[C@@H]1c1cccc([N+](=O)[O-])c1 | = | 6.74 |
| CO/C(O)=C1\C(C)=NC(C)=C(C(=O)NCCCN2CCN(c3ccccc3OC)CC2)C1c1cccc([N+](=O)[O-])c1 (configuration not stated) | = | 7.46 |
| COC(=O)C1=C(C)NC(C)=C(C(=O)NCCCN2CCN(c3ccccc3OC)CC2)[C@H]1c1cccc([N+](=O)[O-])c1 | = | 7.80 |
| CO/C(O)=C1\C(C)=NC(C)=C(C(=O)n2ccnc2)[C@H]1c1cccc([N+](=O)[O-])c1 | = | 8.11 |

----------
tgt: Adrenergic receptor alpha-1 (Rattus norvegicus, UniProt P15823+P23944+P43140)
protocol: Alpha-1 adrenergic receptor binding affinity was evaluated by its ability to displace [3H]prazosin in rat brain synaptosomes
Type: subcellular

| compound | Ki |
| --- | --- |
| COC(=O)C1=C(C)NC(C)=C(C(=O)NCCCN2CCN(c3ccccc3OC)CC2)[C@@H]1c1cccc([N+](=O)[O-])c1 | 36 nM |
| COC(=O)C1=C(C)NC(C)=C(C(=O)OC)C1c1ccccc1[N+](=O)[O-] [NIFEDIPINE] | > 1000 nM |
| COC(=O)C1=C(C)NC(C)=C(C(=O)NCCCN2CCN(c3ccccc3OC)CC2)[C@H]1c1cccc([N+](=O)[O-])c1 | 4.6 nM |
| CO/C(O)=C1\C(C)=NC(C)=C(C(=O)n2ccnc2)[C@H]1c1cccc([N+](=O)[O-])c1 | > 1000 nM |
| CO/C(O)=C1\C(C)=NC(C)=C(C(=O)n2ccnc2)[C@@H]1c1cccc([N+](=O)[O-])c1 | > 1000 nM |
| CO/C(O)=C1\C(C)=NC(C)=C(C(=O)NCCCN2CCN(c3ccccc3OC)CC2)C1c1cccc([N+](=O)[O-])c1 (stereo unspecified) | 13 nM |
